Data provenance is patent US20240101635A1.

Target: T1, human insulin receptor (human, UniProt P06213 28-1382)
T1 construct: whole, on cells; Endogenous receptor on IM-9 cells; also called IR
T1 sequence (P06213 28-1382): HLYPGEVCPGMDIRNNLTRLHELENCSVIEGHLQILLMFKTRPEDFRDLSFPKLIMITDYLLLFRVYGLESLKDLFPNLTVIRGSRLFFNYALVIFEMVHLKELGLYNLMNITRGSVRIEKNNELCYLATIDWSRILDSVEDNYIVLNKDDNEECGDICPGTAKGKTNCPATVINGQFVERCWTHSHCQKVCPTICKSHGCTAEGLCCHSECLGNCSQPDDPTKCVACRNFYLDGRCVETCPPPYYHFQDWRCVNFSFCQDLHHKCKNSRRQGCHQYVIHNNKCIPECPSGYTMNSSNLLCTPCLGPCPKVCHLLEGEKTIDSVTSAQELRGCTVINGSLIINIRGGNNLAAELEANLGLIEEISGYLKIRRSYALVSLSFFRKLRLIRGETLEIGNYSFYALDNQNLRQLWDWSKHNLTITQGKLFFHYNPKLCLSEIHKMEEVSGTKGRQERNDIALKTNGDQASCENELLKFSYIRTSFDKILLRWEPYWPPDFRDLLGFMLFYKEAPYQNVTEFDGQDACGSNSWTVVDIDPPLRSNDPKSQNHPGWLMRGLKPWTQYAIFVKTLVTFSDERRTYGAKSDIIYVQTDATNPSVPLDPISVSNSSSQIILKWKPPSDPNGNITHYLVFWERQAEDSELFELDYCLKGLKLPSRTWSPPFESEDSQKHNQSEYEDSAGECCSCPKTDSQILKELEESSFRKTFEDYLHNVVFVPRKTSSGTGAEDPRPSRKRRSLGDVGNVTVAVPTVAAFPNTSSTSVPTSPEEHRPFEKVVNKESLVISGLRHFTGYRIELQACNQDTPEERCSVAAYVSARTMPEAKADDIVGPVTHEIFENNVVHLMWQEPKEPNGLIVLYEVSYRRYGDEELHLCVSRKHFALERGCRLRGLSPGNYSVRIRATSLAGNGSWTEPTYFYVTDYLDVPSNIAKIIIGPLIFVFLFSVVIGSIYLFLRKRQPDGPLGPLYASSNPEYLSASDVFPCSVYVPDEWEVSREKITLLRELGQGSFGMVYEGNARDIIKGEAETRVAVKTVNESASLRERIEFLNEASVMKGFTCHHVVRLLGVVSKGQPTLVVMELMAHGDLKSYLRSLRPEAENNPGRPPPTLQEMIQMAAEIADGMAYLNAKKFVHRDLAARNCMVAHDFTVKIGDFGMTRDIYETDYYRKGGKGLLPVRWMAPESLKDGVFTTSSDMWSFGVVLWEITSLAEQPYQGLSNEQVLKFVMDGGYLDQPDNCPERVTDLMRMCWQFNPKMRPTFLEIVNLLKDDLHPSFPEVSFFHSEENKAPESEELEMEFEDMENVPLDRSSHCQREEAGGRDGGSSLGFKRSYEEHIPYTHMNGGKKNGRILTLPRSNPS
Test: competition with biotinylated RHI on IM-9 cells, flow cytometry, 4 C
MEASURE: IC50 (nM)
Report only the number, with the unit nM understood.

BINDER	IC50 (nM)
insulin-Fc fusion protein of SEQ ID NO: 122 (Fc fusion, homodimer) FVNQHLCGSHLVEALELVCGERGFHYGGGGGGSGGGGGIVEQCCTSTCSLDQLENYCGGGGGQGGGGQGGGGQGGGGGGEGPKCPVPEIPGAPSVFIFPPKPKDTLSISRTPEVTCLVVDLGPDDSNVQITWFVDNTEMHTAKTRPREEQFNSTYRVVSVLPILHQDWLKGKEFKCKVNSKSLPSAMERTISKAKGQPHEPQVYVLPPTQEELSENKVSVTCLIKGFHPPDIAVEWEITGQPEPENNYQTTPPQLDSDGTYFLYSRLSVDRSHWQRGNTYTCSVSHEALHSHHTQKSLTQSPG	2540
insulin-Fc fusion protein of SEQ ID NO: 108 (Fc fusion, about 49% homodimer) FVNQHLCGSDLVEALALVCGERGFFYTDPTGGGPRRGIVEQCCHSICSLYQLENYCNGGGGSGGGGDCPKCPPPEMLGGPSIFIFPPKPKDTLSISRTPEVTCLVVDLGPDDSDVQITWFVDNTQVYTAKTSPREEQFNSTYRVVSVLPILHQDWLKGKEFKCKVNSKSLPSPIERTISKDKGQPHEPQVYVLPPAQEELSRNKVSVTCLIEGFYPSDIAVEWEITGQPEPENNYRTTPPQLDSDGTYFLYSRLSVDRSRWQRGNTYTCSVSHEALHSHHTQKSLTQSPG	62
insulin-Fc fusion protein of SEQ ID NO: 106 (Fc fusion, homodimer) FVNQHLCGSDLVEALYLVCGERGFFYTDPTGGGPRRGIVEQCCHSICSLYQLENYCNGGGGSGGGGGEGPKCPVPEIPGAPSVFIFPPKPKDTLSISRTPEVTCLVVDLGPDDSNVQITWFVDNTEMHTAKTRPREEQFNSTYRVVSVLPILHQDWLKGKEFKCKVNSKSLPSAMERTISKAKGQPHEPQVYVLPPTQEELSENKVSVTCLIKGFHPPDIAVEWEITGQPEPENNYQTTPPQLDSDGTYFLYSRLSVDRSHWQRGNTYTCSVSHEALHSHHTQKSLTQSPG	22
insulin-Fc fusion protein of SEQ ID NO: 52 (Fc fusion, Homodimer; HEK293, Protein A) FVNQHLCGSDLVEALALVCGERGFFYTDPTGGGPRRGIVEQCCHSICSLYQLENYCNGGGGAGGGGDCPKCPAPEMLGGPSVFIFPPKPKDTLLIARTPEVTCVVVDLDPEDPEVQISWFVDGKQMQTAKTQPREEQFNGTYRVVSVLPIGHQDWLKGKQFTCKVNNKALPSPIERTISKARGQAHQPSVYVLPPSREELSKNTVSLTCLIKDFFPPDIDVEWQSNGQQEPESKYRTTPPQLDEDGSYFLYSKLSVDKSRWQRGDTFICAVMHEALHNHYTQESLSHSPG	28

Please turn your attention to the following entry.
Kindly note the recorded IC50 for insulin-Fc fusion protein of SEQ ID NO: 114 (Fc fusion, homodimer) FVNQHLCGSHLVEALALVCGERGFFYTDPAGGGPRRGIVEQCCASVCSLYQLEHYCGGGGAGGGGGEGPKCPVPEIPGAPSVFIFPPKPKDTLSISRTPEVTCLVVDLGPDDSNVQITWFVDNTEMHTAKTRPREEQFNSTYRVVSVLPILHQDWLKGKEFKCKVNSKSLPSAMERTISKAKGQPHEPQVYVLPPTQEELSENKVSVTCLIKGFHPPDIAVEWEITGQPEPENNYQTTPPQLDSDGTYFLYSRLSVDRSHWQRGNTYTCSVSHEALHSHHTQKSLTQSP , which is 3480
